Collected normalized growth values appear next to each entry.
Assay text: chemical genetic growth profiling, strain panel (AID 1159580);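 further: tested at 20 µM; growth read once vehicle control cultures reached saturation at 30 °C; 1 = growth at the plate median or of vehicle wells; lower values mean less growth of the strain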
Test settings: S. cerevisiae deletion strains, growth OD, locus YDR101C, strain arx1, hits give low values
The campaign covered roughly 5,500 compounds. About 2,000 (36%) were called active. Roughly 18% stayed inconclusive and do not appear here. Some of the results follow.

Molecule | normalized growth
Cc1cc(O)c(C=O)c(O)c1C(=O)O | 1.04
O=C(O)c1cc2ccccc2[nH]1 | 1.02
COc1ccc2c(c1OC)C(=O)O[C@H]2[C@H]1c2cc3c(cc2CCN1C)OCO3 | 1
CC(=O)[C@H]1CCC2C3CCC4=CC(=O)CC[C@]4(C)C3CC[C@@]21C (stereo partly specified) | 0.908
CC[C@H](/C=C/C(C)C1CCC2C3CCC4=CC(=O)CC[C@]4(C)C3CC[C@]12C)C(C)C (stereo partly specified) | 1.01
CCS(=O)CCSP(=O)(OC)OC (stereo unspecified) | 1
COc1cc2c(cc1OC)[C@@H]1C(=O)c3ccc(OC)c(CC=C(C)C)c3O[C@@H]1CO2 | 1.03
CCC(=O)O[C@H]1CCC2C3CCC4=CC(=O)CC[C@]4(C)C3CC[C@@]21C (stereo partly specified) | 0.957
CCOC(=O)c1c(C)cc(O)c(C=O)c1O | 0.181
CN(C)CC/C=C1\c2ccccc2Sc2ccc(Cl)cc21 | 0.977
COc1ccc2c(c1OC)C(=O)O[C@@H]2[C@H]1c2cc3c(cc2CCN1C)OCO3 | 1.01
